- protocolNotes: chemical genetic growth profiling, strain panel (AID 1159580);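 note: tested at 20 µM; growth read once vehicle control cultures reached saturation at 30 °C; 1 = growth at the plate median or of vehicle wells; lower values mean less growth of the strain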
- conditionInfo: S. cerevisiae deletion strains, growth OD, locus YNL250W, strain rad50, active compounds read low
Screen size: about 5,500 compounds; about 2,000 (36%) were called active. Roughly 18% stayed inconclusive and do not appear here. The list shows a part of the results.
hey, just use t if measured normalized growth is less than 1, otherwise f

compound | label
Cc1cc(=O)c2c(O)c3c(cc2o1)OCC(C)CC3 (stereo unspecified) | t
Cc1coc2ccccc2c1=O | f
Cc1cc(=O)c2c(o1)-c1c(cc(O)c(O)c1C(=O)O)OC2 | f
O=c1c2ccccc2oc2ccc(O)cc12 | t

----------
- protocolNotes: chemical genetic growth profiling, strain panel (AID 1159580)
- conditionInfo: S. cerevisiae deletion strains, growth OD, locus YHR030C, strain SLT2, active compounds read low
About 2,000 (36%) of roughly 5,500 compounds were called active. Roughly 18% stayed inconclusive and do not appear here. The list shows a part of the results.
The compounds listed here are annotated with their normalized growth.
parameter: normalized growth

compound | obsValue
CSc1ccc2c(c1)C(N1CCN(C)CC1)Cc1ccccc1S2 (configuration not stated) | 0.655
Nc1nnc(-c2cccc(Cl)c2Cl)c(N)n1 | 1
COC(=O)C[C@H]1C(C)(C)C(=O)[C@@H]2CC3=C4CC(OC)O[C@@H](c5ccoc5)[C@]4(C)CCC3[C@@]1(C)C2=O (some centres not stated) | 1
CCC1C2CC3C4N(C)c5ccccc5C45CC(C2C5OC(C)=O)N3C1OC(C)=O (configuration not stated) | 1.02
Cc1coc2ccccc2c1=O | 0.997
COc1c2c(cc3c1OCO3)CC[N+](C)=C2 | 0.989
O=C(O)c1coc2ccccc2c1=O | 0.867
O=C(O)c1cc(=O)c2ccccc2o1 | 1.03
O=c1c2ccccc2oc2ccc(O)cc12 | 0.738
O=C1Nc2ccccc2/C1=N/N=C\c1cc(Br)cc(Br)c1O | 0.128
CC(=O)O[C@H]1C[C@@]2(C)[C@H](c3ccoc3)OC(=O)[C@H]3O[C@]32[C@@]2(C)C1[C@]1(C)C(C[C@H]2OC(C)=O)C(C)(C)[C@H](OC(C)=O)C[C@@H]1OC(C)=O (some centres not stated) | 0.991
O=C1CC[C@]23C=CC(=O)NCCCCNCCCNC(=O)/C=C/c4ccc(c2c4)O[C@@H]3C1 | 1.05
CCOC(=O)c1ccc2oc3ccc(O)cc3c(=O)c2c1 | 0.826
CCN1CCN(c2cc3c(cc2F)c(=O)c(C(=O)O)cn3C2CC2)CC1 | 0.992
CC[C@]12C=CCN3CC[C@@]4(c5ccc(OC)cc5N(C)C4[C@@](O)(C(=O)OC)[C@@H]1OC(C)=O)[C@@H]32 (some centres not stated) | 0.912
O=c1c2ccccc2oc2ccccc12 | 0.813
O=C1Nc2ccccc2/C1=N/N=C\c1ccccc1Cl | 0.83

----------
- protocolNotes: chemical genetic growth profiling, strain panel (AID 1159580)
- conditionInfo: S. cerevisiae deletion strains, growth OD, locus YCL011C, strain gbp2
In all, about 5,500 compounds went through this assay and about 2,000 (36%) were called active. Another 18% or so got no clear call; they are omitted. Cut-off read from the data, not from the text of the source: active = normalized growth mostly below about 0.91 (no sharp cut-off); inconclusive = no clear call, values can overlap the other calls; inactive = mostly above about 0.92. The list shows a part of the results.
Classes used: active, inactive

structureAsSmiles | label
COc1cc2c3cc1Oc1cc(ccc1O)C[C@@H]1c4c(cc(OC)c(O)c4Oc4ccc(cc4)C[C@@H]3N(C)CC2)CC[N+]1(C)C | inactive
O=c1cc(-c2ccc(O)c(O)c2)oc2ccccc12 | inactive
O=C1CN2Cc3c(ccc(Cl)c3Cl)N=C2N1 | inactive
CC(=O)Oc1cc(-c2coc3cc(OC(C)=O)c(OC(C)=O)c(OC(C)=O)c3c2=O)cc(OC(C)=O)c1OC(C)=O | inactive
ClC(Cl)=C(c1ccc(Cl)cc1)c1ccc(Cl)cc1 | inactive
O=C1CC[C@]23C=CC(=O)NCCCCNCCCNC(=O)/C=C/c4ccc(c2c4)O[C@@H]3C1 | inactive
COc1ccc(-c2cc(=O)c3c(OC(C)=O)cc(OC(C)=O)cc3o2)cc1 | inactive
COc1ccc(-c2cc(=O)c3ccccc3o2)cc1OC | active
CCCCCCCCCCCCCCCC[n+]1ccccc1 | active
CC(=O)Oc1c(-c2ccccc2)oc2c(CC=C(C)C)c3c(c(OC(C)=O)c2c1=O)C=CC(C)(C)O3 | inactive
CCCN1C[C@H](CSC)C[C@@H]2c3cccc4[nH]cc(c34)C[C@H]21 | inactive
S=c1ccss1 | inactive
O=c1c(-c2cc(O)c(O)c(O)c2)coc2cc(O)c(O)c(O)c12 | inactive

----------
- protocolNotes: chemical genetic growth profiling, strain panel (AID 1159580)
- conditionInfo: S. cerevisiae deletion strains, growth OD, locus YOR144C, strain elg1, active compounds read low
The whole screen tested about 5,500 compounds, of which about 2,000 (36%) were called active. Another 18% or so got no clear call; they are omitted. This is one part of the list.
Measured normalized growth, listed per entry.

structureAsSmiles | normalized growth
COc1ccc(-c2coc3cc(OC)cc(O)c3c2=O)cc1 | 0.975 (inactive)
CN(C)CCC=C1c2ccccc2CCc2ccccc21 | 0.977 (inactive)
CNCCC=C1c2ccccc2CCc2ccccc21 | 1.03 (inactive)
CC(C)c1ccc2c(c1O)CC[C@H]1C3=C(CC[C@]21C)C(=O)OC3 | 0.958 (inactive)
CC(C)[C@]12O[C@H]1[C@@H]1O[C@@]13[C@@]1(C)CCC4=C(COC4=O)[C@@H]1C[C@@H]1O[C@@]13C2=O | 0.997 (inactive)
O=c1c(-c2ccc(O)cc2)coc2cc(O)cc(O)c12 | 1.02 (inactive)

----------
- protocolNotes: chemical genetic growth profiling, strain panel (AID 1159580);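 note: tested at 20 µM; growth read once vehicle control cultures reached saturation at 30 °C; 1 = growth at the plate median or of vehicle wells; lower values mean less growth of the strain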
- conditionInfo: S. cerevisiae deletion strains, growth OD, locus YLR221C, strain rsa3, active compounds read low
Out of some 5,500 compounds screened, about 2,000 (36%) were called active. Another 18% or so got no clear call; they are omitted. This is one part of the list.
Mark Criterion met for normalized growth under 1, Criterion not met if at or over.

compound | label
COc1ccc(-c2cc(=O)c3c(OC)c(OC)c(OC)c(OC)c3o2)cc1 | Criterion met
CC(=O)N(O)CCCCCNC(=O)CCC(=O)N(O)CCCCCNC(=O)CCC(=O)N(O)CCCCCN | Criterion not met
CC(=O)[C@H]1CCC2C3CC=C4C[C@@H](O)CC[C@]4(C)C3CC[C@@]21C (some centres undefined) | Criterion met
CC(=O)OCC(=O)[C@H]1CCC2C3CC=C4C[C@@H](O)CC[C@]4(C)C3CC[C@@]21C (some centres undefined) | Criterion met

----------
- protocolNotes: chemical genetic growth profiling, strain panel (AID 1159580);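 note: tested at 20 µM; growth read once vehicle control cultures reached saturation at 30 °C; 1 = growth at the plate median or of vehicle wells; lower values mean less growth of the strain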
- conditionInfo: S. cerevisiae deletion strains, growth OD, locus YBR171W, strain sec66, active compounds read low
In all, about 5,500 compounds went through this assay and about 2,000 (36%) were called active. Another 18% or so got no clear call; they are omitted. The list shows a part of the results.
API: label(entry) gives 1 (yes) if the entry's normalized growth is strictly smaller than 1; on equality or larger values it gives 0 (no).

compound | label
O=C(O)c1cn(-c2ccc(F)cc2)c2cc(N3CCNCC3)c(F)cc2c1=O | 1 (yes)
CC(C)(C)C(=O)C(Oc1ccc(Cl)cc1)n1cncn1 (configuration not stated) | 1 (yes)
FC(F)(F)C(Cl)Br (configuration not stated) | 0 (no)
O=C(/C=C/c1ccccc1)c1ccc(O)cc1 | 1 (yes)
O=C(O)c1nc2cc(Cl)c(Cl)cc2[nH]c1=O | 0 (no)
COc1ccc(C(=O)/C=C/c2ccccc2)cc1 | 1 (yes)
O=C1CN2Cc3c(ccc(Cl)c3Cl)N=C2N1 | 1 (yes)
COc1ccc(-c2cc(=O)c3ccccc3o2)cc1 | 1 (yes)
COC(=O)C1=C(C)NC(C)=C(C(=O)OCC(C)C)C1c1ccccc1[N+](=O)[O-] (configuration not stated) | 1 (yes)

----------
- protocolNotes: chemical genetic growth profiling, strain panel (AID 1159580);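 note: tested at 20 µM; growth read once vehicle control cultures reached saturation at 30 °C; 1 = growth at the plate median or of vehicle wells; lower values mean less growth of the strain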
- conditionInfo: S. cerevisiae deletion strains, growth OD, locus YKR001C, strain vps1
Hit rate of the full screen: of about 5,500 compounds, about 2,000 (36%) were called active. Roughly 18% stayed inconclusive and do not appear here. Rule as the data show it: active = normalized growth mostly below about 0.91 (no sharp cut-off); inconclusive = no clear call, values can overlap the other calls; inactive = mostly above about 0.92. The list shows a part of the results.
Possible outcomes: active, inactive

compound | label
O=c1c(-c2ccccc2)coc2cc(O)cc(O)c12 | active
OC1C(O)C(O)C(O)C(O)C1O (stereo not drawn) | inactive
CC(C)c1ccc2c(c1O)CC[C@H]1C3=C(CC[C@]21C)C(=O)OC3 | active
CC(=O)N(O)CCCCCNC(=O)CCC(=O)N(O)CCCCCNC(=O)CCC(=O)N(O)CCCCCN | inactive
C=C1C2CC[C@@]3(C)[C@H](c4ccoc4)OC(=O)C[C@]13O[C@H]1CC(=O)C(C)(C)[C@H](C(O)C(=O)OC)[C@@]21C (stereo partly drawn) | inactive
COCCOC(=O)C1=C(C)NC(C)=C(C(=O)OC(C)C)C1c1cccc([N+](=O)[O-])c1 (stereo not drawn) | inactive
COc1ccc2cc3[n+](cc2c1OC)CCc1cc2c(cc1-3)OCO2 | active
Cn1nnnc1SCC1=C(C(=O)O)N2C(=O)C(NC(=O)C(O)c3ccccc3)C2SC1 (stereo not drawn) | inactive
CC1=NCCc2c1[nH]c1cc(O)ccc21 | inactive
COc1cccc2c1cc([N+](=O)[O-])c1c(C(=O)O)cc3c(c12)OCO3 | inactive
O=C(/C=C/c1ccccc1)c1ccc(O)cc1 | active
NCC(=O)CCC(=O)O | inactive
Cc1cc(=O)c2c(O)c3c(cc2o1)OC(C)(C)CC3 | inactive
O=C1CCc2cc(OCCCCc3nnnn3C3CCCCC3)ccc2N1 | inactive
CC1(C)O[C@@H]2CC3C4C[C@H](F)C5=CC(=O)C=CC5(C)C4C(O)CC3(C)[C@]2(C(=O)CO)O1 (stereo partly drawn) | inactive
COc1ccc(-c2cc(=O)c3cc(OC)ccc3o2)cc1 | inactive
COC(=O)C1=C(C)NC(C)=C(C(=O)OCCN(C)Cc2ccccc2)C1c1cccc([N+](=O)[O-])c1 (stereo not drawn) | inactive
CC1(C)O[C@@H]2CC3C4CCC5=CC(=O)C=C[C@]5(C)[C@@]4(F)[C@@H](O)C[C@]3(C)[C@]2(C(=O)CO)O1 (stereo partly drawn) | inactive
COc1c(O)cc2c(-c3ccccc3)cc(=O)oc2c1OC | inactive
Cc1cc(=O)c2c(o1)-c1c(cc(O)c(O)c1C(=O)O)OC2 | inactive
CCC/C=C/C=C/[C@@H]1C[C@@H](O)[C@@H](O)C(=O)[C@H]1C=O | inactive
CCCN1C[C@H](CSC)C[C@@H]2c3cccc4[nH]cc(c34)C[C@H]21 | inactive
COc1ccc(-c2cc(=O)c3ccccc3o2)cc1OC | inactive
COc1cc([C@@H]2c3cc4c(cc3C(O[C@@H]3O[C@@H]5CO[C@@H](c6cccs6)OC5[C@H](O)[C@H]3O)C3COC(=O)[C@@H]32)OCO4)cc(OC)c1O (stereo partly drawn) | inactive
O=c1[nH]c2cc(Cl)c(Cl)cc2[nH]c1=O | inactive
COC(=O)C1=C(C)NC(C)=C(C(=O)OC)C1c1ccccc1[N+](=O)[O-] | active
O=c1c2ccccc2[se]n1-c1ccccc1 | active
O=C1CC[C@]23C=CC(=O)NCCCCNCCCNC(=O)/C=C/c4ccc(c2c4)O[C@@H]3C1 | inactive
C#CCOS(=O)OC1CCCCC1Oc1ccc(C(C)(C)C)cc1 (stereo not drawn) | inactive
CC(N)Cc1ccc(O)cc1 (stereo not drawn) | inactive
CN(C)CC/C=C1/c2ccccc2COc2ccccc21 | inactive
COc1c(O)cccc1O | inactive
CC1=CCc2c(cc3oc(C)cc(=O)c3c2O)OC1 | active
C[n+]1cc2c3c(ccc2c2ccc4cc5c(cc4c21)OCO5)OCO3 | active
CC(C)Oc1ccc2c(=O)cc(-c3ccccc3)oc2c1 | active
C=CCCCCCCCCCCCC(O)CC(O)CO (stereo not drawn) (tested in a mixture with another compound) | active
CC(=O)Oc1cc(-c2coc3cc(OC(C)=O)c(OC(C)=O)c(OC(C)=O)c3c2=O)cc(OC(C)=O)c1OC(C)=O | inactive
CCCCCCCCCc1ccc(O)cc1 | active
COc1cc([C@@H]2c3cc4c(cc3[C@H](O)[C@H]3COC(=O)[C@@H]23)OCO4)cc(OC)c1OC | inactive
C[N+]1(CCCCC[N+]2(C)CCCC2)CCCC1 | inactive
COc1cc(O)c2c(=O)c(-c3ccc(O)cc3)coc2c1 | active
Cn1c(=O)c2[nH]c(C3CCCC3)nc2n(C)c1=O | inactive
CC1=C2C(=CO[C@H](C)[C@H]2C)C(=O)C(C(=O)O)=C1O | inactive
